Recorded values, source PubChem BioAssay AID651592.

- test-system: Interleukin-8 (Homo sapiens) (UniProt P10145)
- Sequence (P10145 whole entry, looked up): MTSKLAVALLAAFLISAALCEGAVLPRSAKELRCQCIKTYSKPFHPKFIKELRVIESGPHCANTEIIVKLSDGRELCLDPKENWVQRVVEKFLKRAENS
- protocol-text: inhibitors of NFkB activation in CF airway cells, SAR follow-up, KKLEB cells, panel, IL8 HTRF, NFkB-GFP (AID 651592);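 also: immortalized cystic fibrosis airway epithelial KKLEB cells with an NF-kB GFP reporter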
- details: PAF/TNFa-induced NFkB-GFP / IL8 HTRF, mean of runs
The source made the active and inactive calls.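 The calls were made as follows: active = NF-kB reporter IC50 at most 10 µM, IL-8 IC50 within fivefold of it with bacterial filtrate but not with TNF-alpha; inactive = the rest.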
Permitted responses: YES = active, NO = inactive

Called result for O=C(Nc1ccc(N2CCN(C(=O)c3ccccc3)CC2)cc1)c1cncc(Br)c1
YES

Called result for O=C(Nc1ccc(N2CCN(C(=O)c3ccc(F)cc3)CC2)cc1)c1ccccc1
YES

Called result for O=C(Nc1ccc(N2CCN(C(=O)c3ccccc3)CC2)cc1)c1ccccc1
YES

Called result for O=C(Nc1ccc(N2CCN(C(=O)c3ccccc3)CC2)cc1)c1cc(Br)cc(Br)c1
YES
